- Tested on: MCF10A
- testSummary: percent viability (nuclei count relative to siNT); higher = more viable cells
- condition: 20 nM; 72 h
The reader will find reported percent viability values listed item by item below.
Output spec: scalar in %, unitless text.

Some sequences with recorded percent viability:
INSERT INTO results (sequencestring, systemname, endpointunit, measuredvalue) VALUES
  ('CCUGAUCCCACAGCCCACCU [hsa-miR-3151-3p]', 'MCF10A', '%', 66.1),
  ('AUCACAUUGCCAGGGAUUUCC [hsa-miR-23a-3p]', 'MCF10A', '%', 126);

Record GAUAUCAGCUCAGUAGGCACCG [hsa-miR-3074-3p] , field percent viability: 25.1

Record AAAGACCGUGACUACUUUUGCA [hsa-miR-548ao-3p] , field percent viability: 80.6
